Molecular target: T1, biotin-peptide YCEKNNVRQF (human)
T1 peptide: Biotin-YCEKNNVRQF
Assay: ELISA biotin-peptide; scFv 10 ug/mL; repII
Where no end group is shown, it is not given here. The star is where a group is joined. Biotin = O=C1N[C@H]2[C@H](CS[C@H]2CCCCC(=O)*)N1
recorded-metric: OD450 (OD)
Reply with just the number (in OD).

# input binder: Comparative antibody 3 (Comp-3) scFv, SR_92R (Somovilla-Crespo et al. 2018), His-tagged (scFv) scFv: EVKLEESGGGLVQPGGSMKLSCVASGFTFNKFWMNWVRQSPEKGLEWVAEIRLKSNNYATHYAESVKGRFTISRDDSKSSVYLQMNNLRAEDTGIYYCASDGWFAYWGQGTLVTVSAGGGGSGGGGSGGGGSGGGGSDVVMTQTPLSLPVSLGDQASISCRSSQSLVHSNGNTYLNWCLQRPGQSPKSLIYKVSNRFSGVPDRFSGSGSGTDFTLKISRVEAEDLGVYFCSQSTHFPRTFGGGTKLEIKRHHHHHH ; wanted: its OD450
0.09

# input binder: CCR9_HUM2 scFv (humanized anti-CCR9 scFv, SEQ ID NO: 17 with C-terminal 6xHis tag) (scFv) scFv: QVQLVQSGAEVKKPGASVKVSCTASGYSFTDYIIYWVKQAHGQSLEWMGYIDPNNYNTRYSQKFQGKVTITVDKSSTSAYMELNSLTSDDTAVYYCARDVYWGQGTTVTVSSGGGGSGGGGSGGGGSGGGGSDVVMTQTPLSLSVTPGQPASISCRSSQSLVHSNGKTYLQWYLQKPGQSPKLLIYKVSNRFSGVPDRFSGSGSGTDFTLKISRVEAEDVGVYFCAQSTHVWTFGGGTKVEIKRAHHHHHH ; wanted: its OD450
0.06

# input binder: Comparative antibody 2 (Comp-2) scFv, 243LO326 (VH SEQ ID NO: 51 and VL SEQ ID NO: 52 of WO 2022/195028 A2), His-tagged (scFv) scFv: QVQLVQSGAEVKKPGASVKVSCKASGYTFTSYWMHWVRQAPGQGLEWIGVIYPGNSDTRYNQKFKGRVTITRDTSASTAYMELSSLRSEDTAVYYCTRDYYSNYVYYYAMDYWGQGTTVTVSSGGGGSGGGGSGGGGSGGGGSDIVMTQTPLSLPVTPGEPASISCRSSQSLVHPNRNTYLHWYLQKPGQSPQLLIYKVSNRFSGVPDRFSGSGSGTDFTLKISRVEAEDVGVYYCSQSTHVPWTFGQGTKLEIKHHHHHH ; wanted: its OD450
0.1

Recorded values, source patent US20260232732A1.
